Field: % CT secretion inhibition vs. control. Provide a value for each of the compounds that follow.
Test system: medullary thyroid carcinoma primary cultures
Experiment: Calcitonin secretion by MTC primary cultures (IRMA)
Type: cell-based, human
Conditions: MTC primary culture #7 (responder), 10^−8 M, six hours
Square brackets hold non-standard residues; d marks the D form. Peptide text beside a SMILES is read from it. Tic = O=C(O)[C@@H]1Cc2ccccc2CN1; Abu = CC[C@H](N)C(=O)O
Answers are plain numbers, in %.

Some solved entries appear below for comparison.
CC(C)[C@@H]1NC(=O)[C@H](CCCCN)NC(=O)[C@@H](Cc2c[nH]c3ccccc23)NC(=O)[C@H](Cc2ccc(O)cc2)NC(=O)[C@@H](NC(=O)[C@H](N)Cc2ccc3ccccc3c2)CSSC[C@@H](C(=O)N[C@H](C(N)=O)[C@@H](C)O)NC1=O [lanreotide, reference compound]    −44.6
C[C@@H](O)[C@H](NC(=O)[C@H](Cc1ccccc1)NC(=O)[C@@H](NC(=O)[C@H](CCCCN)NC(=O)[C@@H](Cc1c[nH]c2ccccc12)NC(=O)[C@H](Cc1c[nH]c2ccccc12)NC(=O)[C@H](Cc1ccccc1)NC(=O)[C@H](N)Cc1ccccc1)[C@@H](C)O)C(N)=O [Cmpd #3, D-Phe-Phe-Trp-D-Trp-Lys-Thr-Phe-Thr-NH2]    −34.6
CC[C@@H]1NC(=O)[C@H](CCCCN)NC(=O)[C@@H](Cc2c[nH]c3ccccc23)NC(=O)[C@H](Cc2ccc(O)cc2)NC(=O)[C@@H]2Cc3ccccc3CN2C(=O)[C@H](Cc2ccccc2)NC1=O [Cmpd #2, c[Tic-Tyr-D-Trp-Lys-Abu-Phe]] (cyclo([Tic]Y[dW]K[Abu]F))    −51.3

Look up % CT secretion inhibition vs. control for this compound: CC(C)[C@@H]1NC(=O)[C@H](CCCCN)NC(=O)[C@@H](Cc2c[nH]c3ccccc23)NC(=O)[C@H](Cc2ccc(O)c(I)c2)NC(=O)[C@@H](NC(=O)[C@H](N)Cc2ccccc2)CSSC[C@@H](C(=O)N[C@H](C(N)=O)[C@@H](C)O)NC1=O [Cmpd #4] −42.6

###

Field: % cell viability reduction vs. control. Provide a value for each of the molecules that follow.
System: medullary thyroid carcinoma primary cultures
Test: Cell viability of MTC primary cultures (MTT)
Type: cell-based, human
Conditions: MTC primary culture #5 (responder), 10^−8 M, forty-eight hours
Square brackets hold non-standard residues; d marks the D form. Peptide text beside a SMILES is read from it. Tic = O=C(O)[C@@H]1Cc2ccccc2CN1; Abu = CC[C@H](N)C(=O)O
Include the unit right after the number.

CC(C)[C@@H]1NC(=O)[C@H](CCCCN)NC(=O)[C@@H](Cc2c[nH]c3ccccc23)NC(=O)[C@H](Cc2ccc(O)c(I)c2)NC(=O)[C@@H](NC(=O)[C@H](N)Cc2ccccc2)CSSC[C@@H](C(=O)N[C@H](C(N)=O)[C@@H](C)O)NC1=O    24.7%
CC(C)[C@@H]1NC(=O)[C@H](CCCCN)NC(=O)[C@@H](Cc2c[nH]c3ccccc23)NC(=O)[C@H](Cc2ccc(O)cc2)NC(=O)[C@@H](NC(=O)[C@H](N)Cc2ccc3ccccc3c2)CSSC[C@@H](C(=O)N[C@H](C(N)=O)[C@@H](C)O)NC1=O [lanreotide, reference compound]    13.4%
CC[C@@H]1NC(=O)[C@H](CCCCN)NC(=O)[C@@H](Cc2c[nH]c3ccccc23)NC(=O)[C@H](Cc2ccc(O)cc2)NC(=O)[C@@H]2Cc3ccccc3CN2C(=O)[C@H](Cc2ccccc2)NC1=O [Cmpd #2, c[Tic-Tyr-D-Trp-Lys-Abu-Phe]] (cyclo([Tic]Y[dW]K[Abu]F))    −8.6%

Look up % cell viability reduction vs. control for this molecule: C[C@@H](O)[C@H](NC(=O)[C@H](Cc1ccccc1)NC(=O)[C@@H](NC(=O)[C@H](CCCCN)NC(=O)[C@@H](Cc1c[nH]c2ccccc12)NC(=O)[C@H](Cc1c[nH]c2ccccc12)NC(=O)[C@H](Cc1ccccc1)NC(=O)[C@H](N)Cc1ccccc1)[C@@H](C)O)C(N)=O −5.3%

###

System: medullary thyroid carcinoma primary cultures
Assay: Calcitonin secretion by MTC primary cultures (IRMA)
Assay type: cell-based, human
Settings: MTC primary culture #3 (responder), 10^−8 M, six hours
Square brackets hold non-standard residues; d marks the D form. Peptide text beside a SMILES is read from it. Tic = O=C(O)[C@@H]1Cc2ccccc2CN1; Abu = CC[C@H](N)C(=O)O
MEASURED PARAMETER: % CT secretion inhibition vs. control (%)
Numbers only, in %.

CC[C@@H]1NC(=O)[C@H](CCCCN)NC(=O)[C@@H](Cc2c[nH]c3ccccc23)NC(=O)[C@H](Cc2ccc(O)cc2)NC(=O)[C@@H]2Cc3ccccc3CN2C(=O)[C@H](Cc2ccccc2)NC1=O [Cmpd #2, c[Tic-Tyr-D-Trp-Lys-Abu-Phe]] (cyclo([Tic]Y[dW]K[Abu]F))    −36.0
CC(C)[C@@H]1NC(=O)[C@H](CCCCN)NC(=O)[C@@H](Cc2c[nH]c3ccccc23)NC(=O)[C@H](Cc2ccc(O)cc2)NC(=O)[C@@H](NC(=O)[C@H](N)Cc2ccc3ccccc3c2)CSSC[C@@H](C(=O)N[C@H](C(N)=O)[C@@H](C)O)NC1=O [lanreotide, reference compound]    −22.6
CC(C)[C@@H]1NC(=O)[C@H](CCCCN)NC(=O)[C@@H](Cc2c[nH]c3ccccc23)NC(=O)[C@H](Cc2ccc(O)c(I)c2)NC(=O)[C@@H](NC(=O)[C@H](N)Cc2ccccc2)CSSC[C@@H](C(=O)N[C@H](C(N)=O)[C@@H](C)O)NC1=O    −33.9

Pending molecule:
Look up % CT secretion inhibition vs. control for this molecule: C[C@@H](O)[C@H](NC(=O)[C@H](Cc1ccccc1)NC(=O)[C@@H](NC(=O)[C@H](CCCCN)NC(=O)[C@@H](Cc1c[nH]c2ccccc12)NC(=O)[C@H](Cc1c[nH]c2ccccc12)NC(=O)[C@H](Cc1ccccc1)NC(=O)[C@H](N)Cc1ccccc1)[C@@H](C)O)C(N)=O −36.5

###

Test system: medullary thyroid carcinoma primary cultures
Experiment: Calcitonin secretion by MTC primary cultures (IRMA)
Assay type: cell-based, human
Conditions: MTC primary culture #13 (responder), 10^−8 M, six hours
Square brackets hold non-standard residues; d marks the D form. Peptide text beside a SMILES is read from it. Tic = O=C(O)[C@@H]1Cc2ccccc2CN1; Abu = CC[C@H](N)C(=O)O
Field: % CT secretion inhibition vs. control. Provide a value for each of the compounds that follow.
Give bare numbers, in %.

Some solved entries appear below for comparison.
CC(C)[C@@H]1NC(=O)[C@H](CCCCN)NC(=O)[C@@H](Cc2c[nH]c3ccccc23)NC(=O)[C@H](Cc2ccc(O)c(I)c2)NC(=O)[C@@H](NC(=O)[C@H](N)Cc2ccccc2)CSSC[C@@H](C(=O)N[C@H](C(N)=O)[C@@H](C)O)NC1=O    −42.8
CC[C@@H]1NC(=O)[C@H](CCCCN)NC(=O)[C@@H](Cc2c[nH]c3ccccc23)NC(=O)[C@H](Cc2ccc(O)cc2)NC(=O)[C@@H]2Cc3ccccc3CN2C(=O)[C@H](Cc2ccccc2)NC1=O [Cmpd #2, c[Tic-Tyr-D-Trp-Lys-Abu-Phe]] (cyclo([Tic]Y[dW]K[Abu]F))    −48.6
CC(C)[C@@H]1NC(=O)[C@H](CCCCN)NC(=O)[C@@H](Cc2c[nH]c3ccccc23)NC(=O)[C@H](Cc2ccc(O)cc2)NC(=O)[C@@H](NC(=O)[C@H](N)Cc2ccc3ccccc3c2)CSSC[C@@H](C(=O)N[C@H](C(N)=O)[C@@H](C)O)NC1=O [lanreotide, reference compound]    −42.5

Form: Entry = C[C@@H](O)[C@H](NC(=O)[C@H](Cc1ccccc1)NC(=O)[C@@H](NC(=O)[C@H](CCCCN)NC(=O)[C@@H](Cc1c[nH]c2ccccc12)NC(=O)[C@H](Cc1c[nH]c2ccccc12)NC(=O)[C@H](Cc1ccccc1)NC(=O)[C@H](N)Cc1ccccc1)[C@@H](C)O)C(N)=O | System = medullary thyroid carcinoma primary cultures | % CT secretion inhibition vs. control = ____ −43.2

###

The following compounds have recorded pKi on SSTR3 (Homo sapiens, UniProt P32745).
Sequence (P32745 whole entry): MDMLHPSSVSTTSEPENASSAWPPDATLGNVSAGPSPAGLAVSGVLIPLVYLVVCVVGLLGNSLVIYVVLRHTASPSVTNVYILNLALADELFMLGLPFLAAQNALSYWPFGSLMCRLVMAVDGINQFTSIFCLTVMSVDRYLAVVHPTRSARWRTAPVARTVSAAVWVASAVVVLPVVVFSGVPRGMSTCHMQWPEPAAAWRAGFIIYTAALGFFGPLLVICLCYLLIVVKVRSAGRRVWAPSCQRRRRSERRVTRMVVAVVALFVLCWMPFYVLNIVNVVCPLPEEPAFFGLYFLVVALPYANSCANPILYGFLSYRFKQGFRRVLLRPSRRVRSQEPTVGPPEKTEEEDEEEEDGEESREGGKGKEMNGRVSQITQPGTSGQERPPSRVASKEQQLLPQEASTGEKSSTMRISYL
Square brackets hold non-standard residues; d marks the D form. Peptide text beside a SMILES is read from it. Tic = O=C(O)[C@@H]1Cc2ccccc2CN1; Abu = CC[C@H](N)C(=O)O
Give bare numbers, as −log10 of the molar value.

Some solved entries appear below for comparison.
CC(C)[C@@H]1NC(=O)[C@H](CCCCN)NC(=O)[C@@H](Cc2c[nH]c3ccccc23)NC(=O)[C@H](Cc2ccc(O)c(I)c2)NC(=O)[C@@H](NC(=O)[C@H](N)Cc2ccccc2)CSSC[C@@H](C(=O)N[C@H](C(N)=O)[C@@H](C)O)NC1=O    6.88
CC(C)[C@@H]1NC(=O)[C@H](CCCCN)NC(=O)[C@@H](Cc2c[nH]c3ccccc23)NC(=O)[C@H](Cc2ccc(O)cc2)NC(=O)[C@@H](NC(=O)[C@H](N)Cc2ccc3ccccc3c2)CSSC[C@@H](C(=O)N[C@H](C(N)=O)[C@@H](C)O)NC1=O [lanreotide, reference compound]    7.01

// batch mode: one pKi value per listed entry
1. CC[C@@H]1NC(=O)[C@H](CCCCN)NC(=O)[C@@H](Cc2c[nH]c3ccccc23)NC(=O)[C@H](Cc2ccc(O)cc2)NC(=O)[C@@H]2Cc3ccccc3CN2C(=O)[C@H](Cc2ccccc2)NC1=O [Cmpd #2, c[Tic-Tyr-D-Trp-Lys-Abu-Phe]] (cyclo([Tic]Y[dW]K[Abu]F))
2. C[C@@H](O)[C@H](NC(=O)[C@H](Cc1ccccc1)NC(=O)[C@@H](NC(=O)[C@H](CCCCN)NC(=O)[C@@H](Cc1c[nH]c2ccccc12)NC(=O)[C@H](Cc1c[nH]c2ccccc12)NC(=O)[C@H](Cc1ccccc1)NC(=O)[C@H](N)Cc1ccccc1)[C@@H](C)O)C(N)=O

[6.39, 6.00]

Cited source for all entries: patent US20090099094A1
